Ref: patent US8471005B2

biological target: JAK2 (Homo sapiens, UniProt O60674); construct: host or cells: baculovirus expression system; experiment: Recombinant Human JAK2 Kinase Assay (TRF); format: biochemical; details: JAK2 kinase inhibition, 0.2 μM ATP; read-out: JAK2 Potency
Sequence (O60674 whole entry): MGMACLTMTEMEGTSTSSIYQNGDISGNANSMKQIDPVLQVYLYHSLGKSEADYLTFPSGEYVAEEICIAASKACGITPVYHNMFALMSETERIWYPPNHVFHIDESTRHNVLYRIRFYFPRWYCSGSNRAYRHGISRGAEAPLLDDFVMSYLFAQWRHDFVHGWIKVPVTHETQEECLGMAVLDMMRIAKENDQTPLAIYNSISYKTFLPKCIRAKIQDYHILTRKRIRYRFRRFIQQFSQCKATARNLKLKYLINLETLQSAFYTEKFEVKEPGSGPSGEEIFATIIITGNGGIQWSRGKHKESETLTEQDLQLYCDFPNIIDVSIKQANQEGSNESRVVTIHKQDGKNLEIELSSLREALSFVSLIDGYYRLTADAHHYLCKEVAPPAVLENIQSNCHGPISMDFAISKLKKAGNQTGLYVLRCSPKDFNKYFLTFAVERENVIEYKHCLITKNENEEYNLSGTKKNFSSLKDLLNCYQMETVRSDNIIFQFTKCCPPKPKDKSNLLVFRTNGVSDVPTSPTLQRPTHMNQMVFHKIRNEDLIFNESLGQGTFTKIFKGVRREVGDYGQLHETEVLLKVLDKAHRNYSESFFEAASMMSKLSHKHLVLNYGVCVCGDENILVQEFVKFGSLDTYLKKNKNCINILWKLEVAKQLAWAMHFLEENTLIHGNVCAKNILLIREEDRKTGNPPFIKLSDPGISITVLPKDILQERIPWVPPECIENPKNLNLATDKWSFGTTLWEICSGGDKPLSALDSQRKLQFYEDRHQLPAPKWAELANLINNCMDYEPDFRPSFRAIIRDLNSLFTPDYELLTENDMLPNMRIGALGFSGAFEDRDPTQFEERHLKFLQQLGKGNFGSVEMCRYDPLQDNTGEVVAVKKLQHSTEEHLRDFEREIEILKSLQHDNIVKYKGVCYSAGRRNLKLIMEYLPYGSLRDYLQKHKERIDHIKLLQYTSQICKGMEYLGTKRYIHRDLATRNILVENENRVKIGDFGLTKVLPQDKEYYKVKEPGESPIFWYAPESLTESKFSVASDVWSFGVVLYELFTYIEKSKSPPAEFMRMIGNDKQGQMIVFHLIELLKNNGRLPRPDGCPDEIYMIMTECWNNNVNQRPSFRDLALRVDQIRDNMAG
pIC50: −log10 of the molar value.
Experimental endpoint: pIC50

Problem: Recorded pIC50 of CN(c1ccccc1-c1ccc2cnc(OC3CCN(c4ccc(N)cc4)CC3)nn12)S(C)(=O)=O , please.
Result: 6.00 to 7.00

Problem: Recorded pIC50 of CN1CCOc2ccc(Nc3ncc4ccc(-c5ccccc5N(C)S(C)(=O)=O)n4n3)cc21 , please.
Result: > 7.00

Problem: Recorded pIC50 of COc1cc2c(cc1Nc1ncc3ccc(-c4ccccc4OC)n3n1)CN(C(=O)CN)C2 , please.
Result: > 7.00

Problem: Recorded pIC50 of COc1ccccc1-c1ccc2cnc(Nc3ccc(C4CCN(C(=O)C5CCN(C)CC5)CC4)cc3)nn12 , please.
Result: > 7.00

Problem: Recorded pIC50 of CS(=O)(=O)CCNCc1cccc(-c2ccc3cnc(Nc4ccc(N5CCOCC5)cc4)nn23)c1 , please.
Result: > 7.00

Problem: Recorded pIC50 of COc1cc(C2CCN(C[C@H](O)C(F)(F)F)CC2)ccc1Nc1ncc2ccc(-c3ccccc3OC)n2n1 , please.
Result: 6.00 to 7.00

Problem: Recorded pIC50 of COc1ccc(-c2ccc3cnc(Nc4ccc5ncn(C)c5c4)nn23)cn1 , please.
Result: > 7.00

Problem: Recorded pIC50 of COc1cc(C2CCN(C(=O)CN)CC2)ccc1Nc1ncc2ccc(-c3ccccc3N(C)S(C)(=O)=O)n2n1 , please.
Result: 5.00 to 6.00

---

Catalogue of pIC50 values
biological target: JAK2 (Homo sapiens); construct: host or cells: baculovirus expression system; experiment: Recombinant Human JAK2 Kinase Assay (TRF); format: biochemical; settings: JAK2 kinase inhibition, 0.2 μM ATP; read-out: JAK2 Potency
pIC50: −log10 of the molar value.

CCN(CC)C1CCN(c2ccc(Nc3ncc4ccc(-c5ccccc5OC)n4n3)cc2)CC1 [Example 1138]; > 7.00
Cn1cc(-c2ccc3cnc(Nc4cccc(OCCN5CCOCC5)c4)nn23)cn1 [Example 1004]; > 7.00
COc1cc(C2CCN(CC(=O)N(C)C)CC2)ccc1Nc1ncc2ccc(-c3ccccc3N(C)S(C)(=O)=O)n2n1 [Example 810]; 6.00 to 7.00
COc1ccccc1-c1ccc2cnc(Nc3ccc4c(c3OC)CN(C3CCN(C)CC3)C4)nn12 [Example 853]; 6.00 to 7.00
CN1CCN(CC2CCN(c3ccc(Nc4ncc5ccc(-c6cccc(S(=O)(=O)NC(C)(C)C)c6)n5n4)cc3)CC2)CC1 [Example 589]; > 7.00
CC(C)(C)NS(=O)(=O)c1cccc(-c2ccc3cnc(Nc4ccc(C5CCN(C(=O)OC(C)(C)C)CC5)cc4)nn23)c1 [Example 1058]; > 7.00
COc1cc2c(cc1Nc1ncc3ccc(-c4cccc5c4OCC5)n3n1)CCN(CC(N)=O)CC2 [Example 708]; 6.00 to 7.00
COc1cc(N2CCC(N3CCOCC3)CC2)ccc1Nc1ncc2ccc(-c3c(F)cccc3OC)n2n1 [Example 509]; > 7.00

Problem: Report pIC50 for CN1CCN(c2ccc(Nc3ncc4ccc(C5=CCN(S(C)(=O)=O)CC5)n4n3)cc2)CC1 [Example 1139] tested on JAK2 (Homo sapiens).
Result: > 7.00

Problem: Report pIC50 for COc1cc(N2CCC(N(C)CCO)CC2)ccc1Nc1ncc2ccc(-c3ccccc3OC)n2n1 [Example 796] tested on JAK2 (Homo sapiens).
Result: > 7.00

---

biological target: JAK2 (Homo sapiens); construct: host or cells: baculovirus expression system; experiment: Recombinant Human JAK2 Kinase Assay (TRF); assay type: biochemical; conditions: JAK2 kinase inhibition, 0.2 μM ATP; read-out: JAK2 Potency
Experimental endpoint: IC50

Problem: Recorded IC50 of COc1cc(C2CCN(C[C@@H](C)O)CC2)ccc1Nc1ncc2ccc(-c3ccccc3N(C)S(C)(=O)=O)n2n1 , please.
Result: 100 to 1000 nM

Problem: Recorded IC50 of COc1ccccc1-c1cc(O)c2cnc(Nc3ccc(C4CCN(CC(N)=O)CC4)cc3)nn12 , please.
Result: < 100 nM

Problem: Recorded IC50 of CN1CCN(c2ccc(Nc3ncc4ccc(-c5cnc6ccccc6c5)n4n3)cc2)CC1 , please.
Result: < 100 nM

---

Catalogue of IC50 values
target: ALK (Homo sapiens); construct: host or cells: baculovirus expression system; experiment: ALK Kinase Assay (ELISA/TRF, PLC-γ substrate); format: biochemical; conditions: ALK Kinase Inhibition; read-out: ALK Potency

Here are 3 molecules together with their reported answers.
c1ccc(-c2ccc3cnc(NCCN4CCOCC4)nn23)cc1 [Example 28]; > 10 µM
N#Cc1ccc2cnc(Nc3ccc(N4CCOCC4)cc3)nn12 [Example 51]; > 10 µM
COc1ccc(Cl)cc1-c1ccc2cnc(Nc3cc(OC)c(OC)c(OC)c3)nn12 [Example 141]; 0.1 to 1 µM

Problem: Recorded IC50 of FC1(F)Oc2cccc(-c3ccc4cnc(Nc5ccc6[nH]c(CN7CCOCC7)nc6c5)nn34)c2O1 [Example 1536] , please.
Result: 0.1 to 1 µM

Problem: Recorded IC50 of CS(=O)(=O)c1ccc(-c2ccc3cnc(Nc4ccc5[nH]c(CN6CCN(CCO)CC6)nc5c4)nn23)cc1 [Example 1543] , please.
Result: 1 to 10 µM

Problem: Recorded IC50 of c1cc(N2CCOCC2)ccc1Nc1ncc2ccc(C3CCCCC3)n2n1 [Example 127] , please.
Result: > 10 µM

Problem: Recorded IC50 of CN1CCN(Cc2nc3cc(Nc4ncc5ccc(-c6cccc(S(C)(=O)=O)c6)n5n4)ccc3[nH]2)CC1 [Example 1538] , please.
Result: 0.1 to 1 µM

Problem: Recorded IC50 of CN(C)c1cccc(Nc2ncc3ccc(-c4cccc(Cl)c4)n3n2)c1 [Example 159] , please.
Result: > 10 µM

---

molecular target: ALK (Homo sapiens, UniProt Q9UM73); construct: host or cells: baculovirus expression system; test: ALK Kinase Assay (ELISA/TRF, PLC-γ substrate); format: biochemical; settings: ALK kinase inhibition, 1 μM ATP; read-out: ALK Potency
Sequence (Q9UM73 19-1620): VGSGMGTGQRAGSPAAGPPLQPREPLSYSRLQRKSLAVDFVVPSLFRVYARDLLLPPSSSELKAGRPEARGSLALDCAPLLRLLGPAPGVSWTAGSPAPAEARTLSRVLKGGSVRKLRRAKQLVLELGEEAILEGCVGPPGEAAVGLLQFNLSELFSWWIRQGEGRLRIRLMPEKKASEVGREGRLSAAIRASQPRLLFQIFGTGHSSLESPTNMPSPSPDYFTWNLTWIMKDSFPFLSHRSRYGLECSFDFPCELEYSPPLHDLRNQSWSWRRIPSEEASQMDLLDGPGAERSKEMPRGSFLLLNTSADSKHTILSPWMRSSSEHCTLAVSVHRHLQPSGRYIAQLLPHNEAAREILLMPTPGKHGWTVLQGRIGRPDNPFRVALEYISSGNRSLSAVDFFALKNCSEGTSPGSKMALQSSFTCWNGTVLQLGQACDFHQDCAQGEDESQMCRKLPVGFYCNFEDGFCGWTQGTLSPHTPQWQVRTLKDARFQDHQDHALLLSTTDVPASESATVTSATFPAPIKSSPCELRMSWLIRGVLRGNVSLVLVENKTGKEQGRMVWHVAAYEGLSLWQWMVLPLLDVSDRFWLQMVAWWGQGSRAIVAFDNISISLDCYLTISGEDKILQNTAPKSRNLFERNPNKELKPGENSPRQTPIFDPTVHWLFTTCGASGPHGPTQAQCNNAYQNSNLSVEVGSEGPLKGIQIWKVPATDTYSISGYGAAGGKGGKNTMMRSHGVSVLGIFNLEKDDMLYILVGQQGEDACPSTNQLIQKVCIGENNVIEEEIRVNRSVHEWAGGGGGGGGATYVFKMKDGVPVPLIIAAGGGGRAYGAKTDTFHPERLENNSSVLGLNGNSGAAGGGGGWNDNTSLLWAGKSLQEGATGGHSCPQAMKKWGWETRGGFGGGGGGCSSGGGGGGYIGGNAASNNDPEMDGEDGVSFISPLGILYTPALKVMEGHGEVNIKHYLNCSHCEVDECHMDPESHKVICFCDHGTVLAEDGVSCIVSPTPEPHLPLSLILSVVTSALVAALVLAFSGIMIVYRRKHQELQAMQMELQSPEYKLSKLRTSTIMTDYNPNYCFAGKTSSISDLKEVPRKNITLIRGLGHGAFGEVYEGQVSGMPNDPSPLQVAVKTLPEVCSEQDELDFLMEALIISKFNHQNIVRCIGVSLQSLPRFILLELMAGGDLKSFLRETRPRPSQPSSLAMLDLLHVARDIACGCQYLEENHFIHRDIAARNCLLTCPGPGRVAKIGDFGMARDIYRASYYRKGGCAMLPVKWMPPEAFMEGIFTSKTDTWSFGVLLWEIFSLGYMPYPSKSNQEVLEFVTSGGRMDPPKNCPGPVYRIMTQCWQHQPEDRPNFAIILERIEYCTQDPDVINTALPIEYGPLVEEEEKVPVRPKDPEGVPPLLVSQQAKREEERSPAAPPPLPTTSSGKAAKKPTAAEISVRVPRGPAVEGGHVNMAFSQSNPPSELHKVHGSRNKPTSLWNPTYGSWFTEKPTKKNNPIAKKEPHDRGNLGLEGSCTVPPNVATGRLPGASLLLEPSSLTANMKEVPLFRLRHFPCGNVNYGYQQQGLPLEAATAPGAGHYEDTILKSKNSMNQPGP
pIC50: −log10 of the molar value.
Experimental endpoint: pIC50

CS(=O)(=O)c1ccc(-c2ccc3cnc(Nc4ccc5[nH]c(=O)[nH]c5c4)nn23)cc1; 5.00 to 6.00

Problem: Recorded pIC50 of CS(=O)(=O)Nc1cccc(-c2ccc3cnc(Nc4ccn(CCN5CCOCC5)n4)nn23)c1 , please.
Result: 5.00 to 6.00

Problem: Recorded pIC50 of CN1CCN(c2ccc(Nc3ncc4cc(-c5ccccc5OCC#N)cn4n3)cc2)CC1 , please.
Result: 5.00 to 6.00

Problem: Recorded pIC50 of N#Cc1ccccc1-c1ccc2cnc(Nc3ccc(C4CCN(CC(N)=O)CC4)cc3)nn12 , please.
Result: > 7.00

Problem: Recorded pIC50 of CC(C)(C)NS(=O)(=O)c1cccc(-c2ccc3cnc(Nc4ccc(-c5cccnc5)cc4)nn23)c1 , please.
Result: < 5.00

Problem: Recorded pIC50 of COc1cc(N2CCC(N3CCCN(C)CC3)CC2)ccc1Nc1ncc2ccc(-c3ccccc3N(C)S(C)(=O)=O)n2n1 , please.
Result: > 7.00

Problem: Recorded pIC50 of CC(=O)Nc1cc(Nc2ncc3ccc(-c4cnn(C)c4)n3n2)ccc1Cl , please.
Result: 5.00 to 6.00

Problem: Recorded pIC50 of CC(=O)Nc1cccc(Nc2ncc3ccc(-c4cccc(S(=O)(=O)N5CC[C@H](O)C5)c4)n3n2)c1 , please.
Result: 5.00 to 6.00

Problem: Recorded pIC50 of COc1ccc(-c2ccc3cnc(Nc4ccc5c(c4)N(C(C)=O)CCCC5)nn23)cn1 , please.
Result: < 5.00

Problem: Recorded pIC50 of CNC(=O)CN1CCC(c2ccc(Nc3ncc4ccc(-c5ccccc5N(C)S(C)(=O)=O)n4n3)c(OC)c2)CC1 , please.
Result: > 7.00

Problem: Recorded pIC50 of CC(C)(C)NS(=O)(=O)c1cccc(-c2ccc3cnc(Nc4ccc5c(c4)ncn5CCN4CCOCC4)nn23)c1 , please.
Result: 6.00 to 7.00

Problem: Recorded pIC50 of COc1ccc(-c2ccc3cnc(Nc4ccc(C5CCN(C)CC5)cc4)nn23)cn1 , please.
Result: 6.00 to 7.00

Problem: Recorded pIC50 of COc1ccc(-c2ccc3cnc(Nc4ccc5c(c4)NC(=O)CC5)nn23)cn1 , please.
Result: 5.00 to 6.00

Problem: Recorded pIC50 of COc1cc(C2CCN(C3COC3)CC2)ccc1Nc1ncc2ccc(-c3ccccc3N(C)S(C)(=O)=O)n2n1 , please.
Result: > 7.00

Problem: Recorded pIC50 of CN1CCN(c2ccc(Nc3ncc4ccc(-c5ccc(CNCCS(C)(=O)=O)o5)n4n3)cc2)CC1 , please.
Result: 6.00 to 7.00

Problem: Recorded pIC50 of COc1cc(N2CCC(N3CCCC3)CC2)ccc1Nc1ncc2ccc(-c3ccccc3OC)n2n1 , please.
Result: > 7.00
